Catalogue of ΔH (enthalpy change) values
- Assayed system: DPP-4 (human recombinant) (Homo sapiens)
- Construct: purchased Sigma Aldrich D3446
- Sequence (P27487 whole entry): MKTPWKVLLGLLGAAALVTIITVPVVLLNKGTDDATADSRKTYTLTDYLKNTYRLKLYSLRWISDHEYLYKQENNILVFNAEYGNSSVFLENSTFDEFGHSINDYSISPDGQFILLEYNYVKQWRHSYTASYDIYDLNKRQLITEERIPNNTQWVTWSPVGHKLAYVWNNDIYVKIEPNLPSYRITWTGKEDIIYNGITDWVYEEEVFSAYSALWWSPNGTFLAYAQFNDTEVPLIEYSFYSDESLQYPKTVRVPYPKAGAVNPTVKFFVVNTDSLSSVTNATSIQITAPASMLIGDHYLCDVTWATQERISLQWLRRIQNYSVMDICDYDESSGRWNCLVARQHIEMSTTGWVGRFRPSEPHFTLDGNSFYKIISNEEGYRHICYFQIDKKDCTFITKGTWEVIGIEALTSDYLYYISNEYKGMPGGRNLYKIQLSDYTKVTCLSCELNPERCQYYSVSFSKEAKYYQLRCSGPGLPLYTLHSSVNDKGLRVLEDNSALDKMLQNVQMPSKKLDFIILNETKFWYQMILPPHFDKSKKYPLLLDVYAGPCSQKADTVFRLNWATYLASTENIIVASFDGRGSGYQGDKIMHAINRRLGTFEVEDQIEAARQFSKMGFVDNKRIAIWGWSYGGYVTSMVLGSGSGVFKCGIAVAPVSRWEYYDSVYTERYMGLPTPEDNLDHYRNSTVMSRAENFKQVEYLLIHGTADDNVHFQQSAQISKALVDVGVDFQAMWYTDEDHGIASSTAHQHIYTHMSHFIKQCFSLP
- Test details: Fluorescence quenching experiments (Stern-Volmer, binding constant, thermodynamic parameters);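 also: intrinsic DPP-4 fluorescence emission scanned 290–500 nm, corrected for flavonoid background and inner-filter absorbance, compared without versus with flavonoid quencher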
- Measurement context: from Kb at 298 and 310 K
Entry format: amount then unit.

O=C(/C=C/c1ccc(O)cc1)c1ccc(O)cc1O [G1, Isoliquiritigenin]; -1.901 kcal/mol
COc1cc(-c2oc3cc(O)cc(O)c3c(=O)c2O[C@@H]2O[C@H](CO[C@@H]3O[C@@H](C)[C@H](O)[C@@H](O)[C@H]3O)[C@@H](O)[C@H](O)[C@H]2O)ccc1O [E21, Narcissoside]; -1.937 kcal/mol
O=c1c(O[C@@H]2O[C@H](CO)[C@H](O)[C@H](O)[C@H]2O)c(-c2ccc(O)c(O)c2)oc2cc(O)cc(O)c12 [E4, Hyperoside]; -3.3815 kcal/mol

Would you kindly look at the next entry?
### Prompt # returns recorded ΔH (enthalpy change) (system: DPP-4 (human recombinant) (Homo sapiens)) for OCC1OC(Oc2cc3c(O)cc(O)cc3[o+]c2-c2ccc(O)c(O)c2)C(O)C(O)C1O (stereo not shown) [F2, Cyanidin 3-O-glucoside chloride]
### Response -1.971 kcal/mol
